# Species on record: Canis familiaris
# testSummary: Cardioselectivity was estimated by normalizing changes in diastolic blood pressure to the 50% levels of contractile force in mongrel dogs
# Type: functional, Canis lupus familiaris, Artery
In this section, each of the compounds is paired with its reported Delta blood pressure.
// return numeric value only (unit: mmHg, not printed)

Worked cases, Delta blood pressure given:
Field Delta blood pressure (entry COc1ccc(CC(C)NCCc2ccc(O)c(O)c2)cc1OC (configuration not stated) ) reads -24

Field Delta blood pressure (entry CC(Cc1ccc(O)cc1)NC1CCc2cc(O)c(O)cc2C1 (configuration not stated) ) reads -25

Next:
Field Delta blood pressure (entry CC(Cc1ccc(O)c(O)c1)NC1CCc2cc(O)ccc2C1 (configuration not stated) ) reads -46
